Each entry below lists one item and its recorded Activity value.
- measured on: UniProt Q64133
- Sequence (Q64133 whole entry): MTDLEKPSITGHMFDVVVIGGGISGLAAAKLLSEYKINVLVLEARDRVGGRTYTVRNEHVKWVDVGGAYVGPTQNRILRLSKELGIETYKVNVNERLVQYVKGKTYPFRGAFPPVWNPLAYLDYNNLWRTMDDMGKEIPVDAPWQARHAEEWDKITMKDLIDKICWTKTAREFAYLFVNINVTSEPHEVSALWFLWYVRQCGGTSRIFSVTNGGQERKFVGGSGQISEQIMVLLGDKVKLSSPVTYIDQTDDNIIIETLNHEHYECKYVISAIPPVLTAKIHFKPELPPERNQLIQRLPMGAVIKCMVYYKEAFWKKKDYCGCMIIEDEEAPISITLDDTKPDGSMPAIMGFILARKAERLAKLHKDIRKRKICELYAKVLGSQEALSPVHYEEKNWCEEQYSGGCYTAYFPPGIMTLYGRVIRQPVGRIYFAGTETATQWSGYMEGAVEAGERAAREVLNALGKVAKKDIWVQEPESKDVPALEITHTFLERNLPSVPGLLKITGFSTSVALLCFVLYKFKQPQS
- protocol notes: Inhibition of MAOA in mouse brain mitochondrial fraction assessed as enzyme activity per mg of protein using 5-HT substrate incubated for 20 mins by UV-spectrophotometry
- Type: tissue-based
Please state the figure in nmol; there is no need to write the unit.

COc1cc(/C=C/C(=O)N2CCCCC2)cc2c1OCO2	17.09
COc1cc(/C=C/C(=O)N2CCCC(O)C2)cc2c1OCO2 (centres undefined)	16.63
COc1cc(/C=C/C(=O)N2CCC(O)CC2)cc2c1OCO2	14.46

Now turn to the next compound.
Tested system UniProt Q64133; Activity recorded for `C#CCN(C)CCCOc1ccc(Cl)cc1Cl` was 17.05

====

- measured on: Amine oxidase [flavin-containing] B (Mus musculus, UniProt Q8BW75)
- Sequence (Q8BW75 whole entry): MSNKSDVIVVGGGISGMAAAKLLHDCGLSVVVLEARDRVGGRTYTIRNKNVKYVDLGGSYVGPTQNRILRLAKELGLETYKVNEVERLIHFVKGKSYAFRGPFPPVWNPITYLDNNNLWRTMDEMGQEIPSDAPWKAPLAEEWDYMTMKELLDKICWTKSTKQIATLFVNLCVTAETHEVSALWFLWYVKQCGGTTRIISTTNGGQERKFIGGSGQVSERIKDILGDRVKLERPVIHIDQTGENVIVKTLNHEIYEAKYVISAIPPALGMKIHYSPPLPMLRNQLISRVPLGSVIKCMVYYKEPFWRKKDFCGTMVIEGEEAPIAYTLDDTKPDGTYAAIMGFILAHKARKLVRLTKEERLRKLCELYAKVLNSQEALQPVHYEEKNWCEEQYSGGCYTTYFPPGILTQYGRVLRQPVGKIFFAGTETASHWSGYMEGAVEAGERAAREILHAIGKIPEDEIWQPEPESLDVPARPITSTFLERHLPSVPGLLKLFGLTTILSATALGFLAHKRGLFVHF
- protocol notes: Inhibition of MAOB in mouse brain mitochondrial fraction assessed as enzyme activity per mg of protein using beta-PEA substrate incubated for 20 mins by UV-spectrophotometry
- Type: tissue-based
readout type: Activity (nmol)
Please state the figure in nmol; there is no need to write the unit.

Check out these entries, answers already filled in.
COc1cc(/C=C/C(=O)N2CCCC(O)C2)cc2c1OCO2 (centres undefined)	17.33
COc1cc(/C=C/C(=O)N2CCCCC2)cc2c1OCO2	18.01
COc1cc(/C=C/C(=O)N2CCC(O)CC2)cc2c1OCO2	15.72

Now turn to the next molecule.
Summary for this molecule, C#CCN(C)CCCOc1ccc(Cl)cc1Cl [CLORGILINE] : Activity is 18.16

====

- Test system: Staphylococcus aureus
- protocol notes: Antimicrobial activity against Staphylococcus aureus NCIM 5021 by broth dilution method
- Type: functional
readout type: MIC (µg/mL)
Please state the figure in µg/mL; there is no need to write the unit.

Check out these entries, answers already filled in.
COc1cc(/C=C/C(=O)N2CCN(c3ccccc3)CC2)cc2c1OCO2	18.3
COc1cc(/C=C/C(=O)N2CCN(c3ccccn3)CC2)cc2c1OCO2	15.2
COc1cc(/C=C/C(=O)N2CCNCC2)cc2c1OCO2	30
COc1cc(/C=C/C(=O)N2CCN(C(C)=O)CC2)cc2c1OCO2	14
COc1cc(/C=C/C(=O)N2CCC(C)CC2)cc2c1OCO2	24
CN[C@@H]1[C@H](O[C@H]2[C@H](O[C@H]3[C@H](O)[C@@H](O)[C@H](N=C(N)N)[C@@H](O)[C@@H]3N=C(N)N)O[C@@H](C)[C@]2(O)C=O)O[C@@H](CO)[C@H](O)[C@H]1O [STREPTOMYCIN]	5
COc1ccccc1N1CCN(C(=O)/C=C/c2cc(OC)c3c(c2)OCO3)CC1	16.4
COc1cc(/C=C/C(=O)N2CCCCC2)cc2c1OCO2	24

Summary for this compound, COc1cc(/C=C/C(=O)N2CCCC(O)C2)cc2c1OCO2 (stereo unspecified) : MIC is 50

Summary for this compound, COc1cc(/C=C/C(=O)N2C(C)CCCC2C)cc2c1OCO2 (stereo unspecified) : MIC is 28

Summary for this compound, `COc1cc(/C=C/C(=O)N2CCC(O)CC2)cc2c1OCO2` : MIC is 50

====

- System: Candida albicans
- protocol notes: Antimicrobial activity against Candida albicans NCIM 3471 at 100 ug/mL incubated for 48 hrs by agar disc diffusion method
- Assay type: functional
- test context: NCIM 3471, 48 h, read-out: IZ
Each entry below lists one item and its recorded zone of inhibition at 100 µg/mL value.
Please state the figure in mm; there is no need to write the unit.

COc1cc(/C=C/C(=O)N2CCN(c3ccccc3)CC2)cc2c1OCO2	13.7
COc1cc(/C=C/C(=O)N2CCC(O)CC2)cc2c1OCO2	14
COc1cc(/C=C/C(=O)N2CCCC(O)C2)cc2c1OCO2 (stereo not given)	18
COc1cc(/C=C/C(=O)N2CCNCC2)cc2c1OCO2	10
COc1cc(/C=C/C(=O)N2CCCCC2)cc2c1OCO2	12.5
COc1ccccc1N1CCN(C(=O)/C=C/c2cc(OC)c3c(c2)OCO3)CC1	14.1

Summary for this compound, `COc1cc(/C=C/C(=O)N2CCC(C)CC2)cc2c1OCO2` : zone of inhibition at 100 µg/mL is 10

Summary for this compound, COc1cc(/C=C/C(=O)N2C(C)CCCC2C)cc2c1OCO2 (stereo not given) : zone of inhibition at 100 µg/mL is 12

Summary for this compound, `COc1cc(/C=C/C(=O)N2CCN(c3ccccn3)CC2)cc2c1OCO2` : zone of inhibition at 100 µg/mL is 11.4

Summary for this compound, `COc1cc(/C=C/C(=O)N2CCN(C(C)=O)CC2)cc2c1OCO2` : zone of inhibition at 100 µg/mL is 11

====

- Tested on: Pseudomonas aeruginosa
- protocol notes: Antimicrobial activity against Pseudomonas aeruginosa NCIM 5029 at 100 ug/mL incubated for 24 hrs by agar disc diffusion method
- Assay type: functional
- test context: NCIM 5029, 24 h, read-out: IZ
readout type: zone of inhibition at 100 µg/mL (mm)
Please state the figure in mm; there is no need to write the unit.

Check out these entries, answers already filled in.
COc1ccccc1N1CCN(C(=O)/C=C/c2cc(OC)c3c(c2)OCO3)CC1	11
COc1cc(/C=C/C(=O)N2CCNCC2)cc2c1OCO2	13
COc1cc(/C=C/C(=O)N2CCCCC2)cc2c1OCO2	16
COc1cc(/C=C/C(=O)N2CCC(C)CC2)cc2c1OCO2	9

Now turn to the next compound.
Summary for this compound, COc1cc(/C=C/C(=O)N2CCCC(O)C2)cc2c1OCO2 (stereo not given) : zone of inhibition at 100 µg/mL is 12

====

- System: Mus musculus
- protocol notes: Antidepressant activity in Swiss albino mouse assessed as mean immobility time measured during last 4 mins of single 6 mins test session at 20 mg/kg, po by forced swim test (reference value: 75.33 +/- 3.35 secs)
- Assay type: functional
Values of Time greater than or equal to 60 s map to MET; values below map to NOT MET.

Below are worked cases with known answers.
COc1cc(/C=C/C(=O)N2CCC(C)CC2)cc2c1OCO2	NOT MET
COc1cc(/C=C/C(=O)N2CCN(c3ccccn3)CC2)cc2c1OCO2	MET
COc1cc(/C=C/C(=O)N2CCN(c3ccccc3)CC2)cc2c1OCO2	MET
COc1cc(/C=C/C(=O)N2C(C)CCCC2C)cc2c1OCO2 (stereo unspecified)	NOT MET

**Query** Determine whether measured Time meets or exceeds 60 s for `COc1cc(/C=C/C(=O)N2CCN(C(C)=O)CC2)cc2c1OCO2`
**Result** NOT MET

====

- Test system: Radical scavenging activity
- protocol notes: Antioxidant activity assessed as DPPH free radical scavenging activity by spectrophotometry
- Format: functional
readout type: IC50 (µg/mL)
Please state the figure in µg/mL; there is no need to write the unit.

Check out these entries, answers already filled in.
COc1cc(/C=C/C(=O)N2CCN(C(C)=O)CC2)cc2c1OCO2	23.2
COc1cc(/C=C/C(=O)N2C(C)CCCC2C)cc2c1OCO2 (stereo unspecified)	13.8
COc1cc(/C=C/C(=O)N2CCCCC2)cc2c1OCO2	14.9
COc1cc(/C=C/C(=O)N2CCC(C)CC2)cc2c1OCO2	15.3
COc1cc(/C=C/C(=O)N2CCC(O)CC2)cc2c1OCO2	8.3
COc1cc(/C=C/C(=O)N2CCN(c3ccccn3)CC2)cc2c1OCO2	19.3
COc1cc(/C=C/C(=O)N2CCN(c3ccccc3)CC2)cc2c1OCO2	36.9
COc1cc(/C=C/C(=O)N2CCNCC2)cc2c1OCO2	20.1

Summary for this compound, COc1cc(/C=C/C(=O)N2CCCC(O)C2)cc2c1OCO2 (stereo unspecified) : IC50 is 13.4

Summary for this compound, `COc1ccccc1N1CCN(C(=O)/C=C/c2cc(OC)c3c(c2)OCO3)CC1` : IC50 is 14.7

Summary for this compound, `O=C1O[C@H]([C@@H](O)CO)C(O)=C1O` : IC50 is 12.6

====

- protocol notes: Antioxidant activity assessed as superoxide scavenging activity using xanthine-xanthine oxidase system by NBT dye reduction based assay
- Assay type: functional
Under this convention, Yes denotes IC50 strictly below 20 µg/mL and No denotes IC50 at or above 20 µg/mL.

COc1cc(/C=C/C(=O)N2CCN(c3ccccc3)CC2)cc2c1OCO2	No

**Query** Bench note: check whether `COc1ccccc1N1CCN(C(=O)/C=C/c2cc(OC)c3c(c2)OCO3)CC1` shows IC50 below 20 µg/mL
**Result** Yes

**Query** Bench note: check whether `COc1cc(/C=C/C(=O)N2CCN(c3ccccn3)CC2)cc2c1OCO2` shows IC50 below 20 µg/mL
**Result** Yes

**Query** Bench note: check whether `COc1cc(/C=C/C(=O)N2CCNCC2)cc2c1OCO2` shows IC50 below 20 µg/mL
**Result** No

**Query** Bench note: check whether `COc1cc(/C=C/C(=O)N2CCC(O)CC2)cc2c1OCO2` shows IC50 below 20 µg/mL
**Result** Yes

**Query** Bench note: check whether `COc1cc(/C=C/C(=O)N2CCCCC2)cc2c1OCO2` shows IC50 below 20 µg/mL
**Result** Yes

**Query** Bench note: check whether COc1cc(/C=C/C(=O)N2C(C)CCCC2C)cc2c1OCO2 (stereo not given) shows IC50 below 20 µg/mL
**Result** Yes

**Query** Bench note: check whether COc1cc(/C=C/C(=O)N2CCCC(O)C2)cc2c1OCO2 (stereo not given) shows IC50 below 20 µg/mL
**Result** Yes

**Query** Bench note: check whether `COc1cc(/C=C/C(=O)N2CCN(C(C)=O)CC2)cc2c1OCO2` shows IC50 below 20 µg/mL
**Result** No
